- system.name: AEA-DA lipid probe targets in Neuro2a cells (Mus musculus, UniProt Q9DBH5)
- Sequence (Q9DBH5 47-358): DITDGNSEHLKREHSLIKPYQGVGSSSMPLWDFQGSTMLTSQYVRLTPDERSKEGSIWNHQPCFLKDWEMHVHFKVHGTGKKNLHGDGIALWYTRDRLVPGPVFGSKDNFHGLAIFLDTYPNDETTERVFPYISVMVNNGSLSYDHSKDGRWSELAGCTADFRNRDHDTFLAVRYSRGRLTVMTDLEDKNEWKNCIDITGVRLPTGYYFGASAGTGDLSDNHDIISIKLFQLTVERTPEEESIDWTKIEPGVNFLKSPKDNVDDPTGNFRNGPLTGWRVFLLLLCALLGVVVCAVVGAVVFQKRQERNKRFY
- reported.conditions: competitor 25 μM

compound: O=C(/C=C/c1cccnc1)NCCCCC1CCN(C(=O)c2ccccc2)CC1 [FK-866, reference compound]
SILAC ratio Lman2: 1.1

compound: CN1CCN(C(=O)c2[nH]c3ccc([N+](=O)[O-])cc3c2-c2ccccc2)CC1 [MJN228]
SILAC ratio Lman2: 1.1

compound: C=CCN(C)CCCCCCOc1ccc(C(=O)c2ccc(Br)cc2)c(F)c1 [Ro 48-8071, reference compound]
SILAC ratio Lman2: 0.7

compound: CN1CCN(C(=O)c2c(-c3ccccc3)c3cc([N+](=O)[O-])ccc3n2C)CC1 [KML110]
SILAC ratio Lman2: 1.3
